Biological target: human dopamine D3 receptors (Homo sapiens)
Construct: expressed in transfected cells; membranes used
Sequence (P35462 whole entry): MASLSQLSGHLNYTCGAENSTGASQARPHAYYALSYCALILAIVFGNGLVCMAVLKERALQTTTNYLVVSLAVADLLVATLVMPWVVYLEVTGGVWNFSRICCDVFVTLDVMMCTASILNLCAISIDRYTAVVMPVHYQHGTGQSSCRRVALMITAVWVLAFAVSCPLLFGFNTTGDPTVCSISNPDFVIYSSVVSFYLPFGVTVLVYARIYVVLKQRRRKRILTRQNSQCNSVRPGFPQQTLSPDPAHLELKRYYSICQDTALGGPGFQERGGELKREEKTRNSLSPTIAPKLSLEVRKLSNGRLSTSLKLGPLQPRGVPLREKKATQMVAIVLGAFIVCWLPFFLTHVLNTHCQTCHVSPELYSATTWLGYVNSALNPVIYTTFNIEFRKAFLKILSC
Assay: Dopamine D3 receptor binding, displacement of [125I]-iodosulpride
Conditions: membranes from HEK-293 cells with stably expressed human dopamine D3 receptors, 0.1 nM [125I]-iodosulpride, 25° C., 60 minutes; read-out: Ki (D3)
Ki listing for selected compounds.
Please answer in the form of a number followed by its unit of measurement.

{"COMPOUND": "CC(C)c1ccc(S(=O)(=O)Nc2ccc3c(c2)CCN(CCCF)CC3)cc1.Cl [Example 66, Hydrochloride]", "Ki": "1.2 nM"}
{"COMPOUND": "CC(C)c1ccc(S(=O)(=O)Nc2ccc3c(c2)CCN(C)CC3)cc1.Cl [Example 56, Hydrochloride]", "Ki": "1.2 nM"}
{"COMPOUND": "CCCCc1ccc(S(=O)(=O)Nc2ccc3c(c2)CCN(CCC)CC3)cc1.O=C(O)C(F)(F)F [Example 13, Trifluoroacetate]", "Ki": "0.6 nM"}
{"COMPOUND": "CCCN1CCc2ccc(NS(=O)(=O)c3ccc(OC)cc3)cc2CC1.O=C(O)C(F)(F)F [Example 16, Trifluoroacetate]", "Ki": "8.1 nM"}
{"COMPOUND": "CCCN1CCc2ccc(NS(=O)(=O)c3ccc(C(C)=O)cc3)cc2CC1", "Ki": "16.5 nM"}

Item: "CCCN1CCc2ccc(CS(=O)(=O)c3ccc(C(C)C)cc3)cc2CC1" | Ki: 1 nM

Lab book: Ki of C=CCN1CCc2ccc(NS(=O)(=O)c3ccc(C(F)(F)F)cc3)cc2CC1.Cl [Example 58, Hydrochloride] noted as 3.4 nM

Record summary for "CCCN1CCc2ccc(NS(=O)(=O)c3ccc(Cl)cc3)cc2CC1" : reported Ki = 4.1 nM

Ki reported for this compound CCCN1CCc2ccc(NS(=O)(=O)c3ccc(CC)cc3)cc2CC1.Cl [Example 5, Hydrochloride] : 1 nM

The compound CCCN1CCc2ccc(NS(=O)(=O)c3ccc(Br)cc3C)cc2CC1.O=C(O)C(F)(F)F [Example 20, Trifluoroacetate] showed Ki equal to 7.1 nM

Quick note, Ki for CCCN1CCc2ccc(NS(=O)(=O)c3ccc(Cl)cc3Cl)cc2CC1.O=C(O)C(F)(F)F [Example 18, Trifluoroacetate] landed at 7.3 nM

In plain terms, CCCN1CCc2ccc(NS(=O)(=O)c3c(C)cc(C)cc3C)cc2CC1.O=C(O)C(F)(F)F [Example 12, Trifluoroacetate] has a documented Ki of 7.2 nM

Notebook: CC(C)c1ccc(S(=O)(=O)Nc2ccc3c(c2)CCN(CC2CC2)CC3)cc1.Cl [Example 57, Hydrochloride] , Ki read as 2.1 nM

Ki recorded for this compound, CCCN1CCc2ccc(S(=O)(=O)Nc3ccc(OC(F)(F)F)cc3)cc2CC1.Cl [Example 35, Hydrochloride] , is 28.2 nM

// field: Ki; key: CCCN1CCc2ccc(NS(=O)(=O)c3ccc(C(C)(C)CC)cc3)cc2CC1.O=C(O)C(F)(F)F [Example 14, Trifluoroacetate] ; value = 3.6 nM

Lookup result for C=Cc1ccc(S(=O)(=O)Nc2ccc3c(c2)CCN(CCC)CC3)cc1.Cl [Example 4, Hydrochloride] ; measured Ki: 0.5 nM

Reported Ki for "CCCN1CCc2ccc(NS(=O)(=O)c3ccc(OC(F)(F)F)cc3)cc2CC1" was 7.1 nM

For this compound ( CCCN1CCc2ccc(NS(=O)(=O)c3ccc(C(C)(C)C)cc3)cc2CC1.Cl [Example 7, Hydrochloride] ), measured Ki is 4.1 nM

# compound CCCN1CCc2ccc(NS(=O)(=O)c3ccc(C(C)C)cc3)cc2CC1.Cl [Example 8, Hydrochloride] ; its Ki = 0.3 nM

Lab note: measured Ki of CCCN1CCc2ccc(NS(=O)(=O)c3ccc(C(F)(F)F)cc3)cc2CC1.Cl [Example 6, Hydrochloride] was 5.8 nM

Ki measured on CCCN1CCc2ccc(N(C)S(=O)(=O)c3ccc(C(C)C)cc3)cc2CC1.O=C(O)C(F)(F)F [Example 31, Trifluoroacetate] = 1 nM

Input CCCN1CCc2ccc(NS(=O)(=O)c3ccc4ccccc4c3)cc2CC1.O=C(O)C(F)(F)F [Example 17, Trifluoroacetate] . Output Ki: 4.5 nM

Form: compound = C=CCN1CCc2ccc(NS(=O)(=O)c3ccc(C(C)C)cc3)cc2CC1.Cl [Example 65, Hydrochloride] ; Ki = 0.4 nM

* * *

Molecular target: human dopamine D2L receptors (long isoform) (Homo sapiens)
Construct: expressed in transfected cells; membranes used
Experiment: Dopamine D2L receptor binding, displacement of [125I]-iodospiperone
Conditions: Ki(D2L)/Ki(D3); human D2L and D3 receptors in HEK-293 membranes
Procedure: C) Biological Investigations—Receptor-Binding Studies: • The substance to be tested was dissolved either in methanol/Chremophor®) (BASF-AG) or in dimethyl sulfoxide and then diluted with water to the desired concentration. II. […] III. […] After addition of 4 ml of Ultima Gold® (Packard), the samples were shaken for one hour and then the radioactivity was counted in a Beta Counter (Packard, Tricarb 2000 or 2200CA). […]
REPORTED_METRIC: Selectivity vs. D2L*
Response field accepts a number only; no unit should be typed.

Below, 3 compounds whose answers are already recorded.
{"COMPOUND": "CCCN1CCc2ccc(NS(=O)(=O)c3ccc(OC(F)(F)F)cc3)cc2CC1 [Example 2]", "QUANTITATIVE_RESULT": 99}
{"COMPOUND": "CCCN1CCc2ccc(NS(=O)(=O)c3c(C)cc(C)cc3C)cc2CC1.O=C(O)C(F)(F)F [Example 12]", "QUANTITATIVE_RESULT": 90}
{"COMPOUND": "CCCN1CCc2ccc(NS(=O)(=O)c3ccc(Br)cc3)cc2CC1.O=C(O)C(F)(F)F [Example 19]", "QUANTITATIVE_RESULT": 65}

We next turn to a different compound, shown below.
Bench note, human dopamine D2L receptors (long isoform) (Homo sapiens): CCCN1CCc2ccc(NS(=O)(=O)c3ccc(C(C)C)cc3)cc2CC1.Cl [Example 8] , Selectivity vs. D2L* reads 330

* * *

# Selectivity vs. D2L* values compiled below
Target: human dopamine D2L receptors (long isoform) (Homo sapiens)
Construct: expressed in transfected cells; membranes used
Assay: Dopamine D2L receptor binding, displacement of [125I]-iodospiperone
Settings: Ki(D2L)/Ki(D3); human D2L and D3 receptors in HEK-293 membranes
Procedure: C) Biological Investigations—Receptor-Binding Studies: • The substance to be tested was dissolved either in methanol/Chremophor®) (BASF-AG) or in dimethyl sulfoxide and then diluted with water to the desired concentration. II. […] III. […] After addition of 4 ml of Ultima Gold® (Packard), the samples were shaken for one hour and then the radioactivity was counted in a Beta Counter (Packard, Tricarb 2000 or 2200CA). […]

Recorded Selectivity vs. D2L*, per entry:
{"MOLECULE": "CCCN1CCc2ccc(NS(=O)(=O)c3ccc(Cl)cc3Cl)cc2CC1.O=C(O)C(F)(F)F [Example 18]", "REPORTED_METRIC": "Selectivity vs. D2L*", "RESULT": 85}
{"MOLECULE": "CC(C)c1ccc(S(=O)(=O)Nc2ccc3c(c2)CCN(C)CC3)cc1.Cl [Example 56]", "REPORTED_METRIC": "Selectivity vs. D2L*", "RESULT": 66}
{"MOLECULE": "CCCN1CCc2ccc(CS(=O)(=O)c3ccc(C(C)C)cc3)cc2CC1 [Example 36]", "REPORTED_METRIC": "Selectivity vs. D2L*", "RESULT": 446}

Reported human dopamine D2L receptors (long isoform) (Homo sapiens) Selectivity vs. D2L* for item CCCN1CCc2ccc(NS(=O)(=O)c3ccc4ccccc4c3)cc2CC1.O=C(O)C(F)(F)F [Example 17] was 68

// returns Selectivity vs. D2L* for CCCN1CCc2ccc(NS(=O)(=O)c3ccc(C(C)(C)C)cc3)cc2CC1.Cl [Example 7] with human dopamine D2L receptors (long isoform) (Homo sapiens); value = 120

Given the molecule CCCCc1ccc(S(=O)(=O)Nc2ccc3c(c2)CCN(CCC)CC3)cc1.O=C(O)C(F)(F)F [Example 13] and test system human dopamine D2L receptors (long isoform) (Homo sapiens), the measured Selectivity vs. D2L* is 143

* * *

Target: human dopamine D2L receptors (long isoform) (Homo sapiens, UniProt P14416)
Construct: expressed in transfected cells; membranes used
Sequence (P14416 whole entry, canonical isoform): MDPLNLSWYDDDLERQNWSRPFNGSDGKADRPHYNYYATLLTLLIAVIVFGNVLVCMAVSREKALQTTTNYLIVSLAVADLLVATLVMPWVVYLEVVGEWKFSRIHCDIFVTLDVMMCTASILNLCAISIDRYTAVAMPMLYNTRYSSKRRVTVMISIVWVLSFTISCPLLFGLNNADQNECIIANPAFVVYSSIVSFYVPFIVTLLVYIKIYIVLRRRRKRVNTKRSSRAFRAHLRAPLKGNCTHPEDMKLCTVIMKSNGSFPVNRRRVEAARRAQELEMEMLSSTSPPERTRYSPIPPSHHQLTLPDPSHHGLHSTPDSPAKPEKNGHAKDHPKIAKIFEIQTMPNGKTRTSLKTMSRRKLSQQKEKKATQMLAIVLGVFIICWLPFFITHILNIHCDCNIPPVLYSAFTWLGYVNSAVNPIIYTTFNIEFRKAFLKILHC
Assay: Dopamine D2L receptor binding, displacement of [125I]-iodospiperone
Details: Ki(D2L)/Ki(D3); human D2L and D3 receptors in HEK-293 membranes
REPORTED_METRIC: Selectivity vs. D2L*
Write the number on its own, no unit after it.

Examples from the recorded data:
{"COMPOUND": "CC(C)c1ccc(S(=O)(=O)Nc2ccc3c(c2)CCN(CC2CC2)CC3)cc1.Cl [Example 57]", "TARGET": "human dopamine D2L receptors (long isoform) (Homo sapiens, UniProt P14416)", "Selectivity vs. D2L*": 115}
{"COMPOUND": "CCCN1CCc2ccc(NS(=O)(=O)c3ccc(Cl)cc3)cc2CC1 [Example 3]", "TARGET": "human dopamine D2L receptors (long isoform) (Homo sapiens, UniProt P14416)", "Selectivity vs. D2L*": 68}
{"COMPOUND": "CCCN1CCc2ccc(N(C)S(=O)(=O)c3ccc(C(C)C)cc3)cc2CC1.O=C(O)C(F)(F)F [Example 31]", "TARGET": "human dopamine D2L receptors (long isoform) (Homo sapiens, UniProt P14416)", "Selectivity vs. D2L*": 63}
{"COMPOUND": "CCCN1CCc2ccc(NS(=O)(=O)c3ccc(OC)cc3)cc2CC1.O=C(O)C(F)(F)F [Example 16]", "TARGET": "human dopamine D2L receptors (long isoform) (Homo sapiens, UniProt P14416)", "Selectivity vs. D2L*": 142}

Selectivity vs. D2L* for CCCN1CCc2ccc(NS(=O)(=O)c3ccc(C(F)(F)F)cc3)cc2CC1.Cl [Example 6] is 252

Query CCCN1CCc2ccc(NS(=O)(=O)c3cc(Cl)sc3Cl)cc2CC1.O=C(O)C(F)(F)F [Example 22] yields Selectivity vs. D2L* of 46

Record summary for CCCN1CCc2ccc(NS(=O)(=O)c3ccc(C)cc3)cc2CC1.O=C(O)C(F)(F)F [Example 11] : reported Selectivity vs. D2L* = 112

Record CC(C)c1ccc(S(=O)(=O)Nc2ccc3c(c2)CCN(CCCF)CC3)cc1.Cl [Example 66] , field Selectivity vs. D2L*: 146

For this compound ( C=CCN1CCc2ccc(NS(=O)(=O)c3ccc(C(C)C)cc3)cc2CC1.Cl [Example 65] ), measured Selectivity vs. D2L* is 141

get_value(item= C=Cc1ccc(S(=O)(=O)Nc2ccc3c(c2)CCN(CCC)CC3)cc1.Cl [Example 4] , readout=Selectivity vs. D2L*) returns 435
